# measurement.protocol: chemical genetic growth profiling, strain panel (AID 1159580);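 further: tested at 20 µM; growth read once vehicle control cultures reached saturation at 30 °C; 1 = growth at the plate median or of vehicle wells; lower values mean less growth of the strain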
# condition.details: S. cerevisiae deletion strains, growth OD, locus YEL003W, strain gim4, stronger effect = lower value
Among all 5,500 compounds or so, about 2,000 (36%) were called active. Roughly 18% stayed inconclusive and do not appear here. The list shows a part of the results.
We begin with a simple list: items and their reported normalized growth.
Give the figure by itself; no unit, no explanation.

// solved cases for normalized growth follow
compound: COC(=O)c1cc(=O)c(O)c2c(O)c(O)ccc2c1
normalized growth: 0.996
//
compound: COc1ccc(C(c2ccc(OC)cc2)C(Cl)(Cl)Cl)cc1
normalized growth: 0.994

Now let's try a different one.
Determine its reported normalized growth: COc1ccc(C(CN(C)C)C2(O)CCCCC2)cc1 (stereo not drawn) 0.976

---

# measurement.protocol: chemical genetic growth profiling, strain panel (AID 1159580)
# condition.details: S. cerevisiae deletion strains, growth OD, locus YJL187C, strain SWE1 (second series), stronger effect = lower value
About 2,000 (36%) of roughly 5,500 compounds were called active. Roughly 18% stayed inconclusive and do not appear here. The list shows a part of the results.
measurement.label: normalized growth
Give the figure by itself; no unit, no explanation.

// solved cases for normalized growth follow
compound: CCN1CCCC(OC(=O)C(c2ccccc2)c2ccccc2)C1 (configuration not stated)
measurement.label: normalized growth
data.value: 1
--
compound: O=S(=O)(O)CCS
measurement.label: normalized growth
data.value: 1.03
--
compound: Clc1ccc(C(OCCN2CCCCC2)c2ccccc2)cc1 (configuration not stated)
measurement.label: normalized growth
data.value: 0.983
--
compound: CN(C)CCOC(c1ccc(Cl)cc1)c1ccccn1 (configuration not stated)
measurement.label: normalized growth
data.value: 1.04

Determine its reported normalized growth: C[C@@H]1O[C@@H](O[C@H]2[C@H](Oc3cc(O)c4c(=O)cc(-c5ccc(O)cc5)oc4c3)O[C@H](CO)[C@@H](O)[C@@H]2O)[C@H](O)[C@H](O)[C@H]1O 0.995

Determine its reported normalized growth: O=C(O)CCCc1ccc(N(CCCl)CCCl)cc1 1

Determine its reported normalized growth: N[C@@H](Cc1ccc(N(CCCl)CCCl)cc1)C(=O)O 0.98

---

# measurement.protocol: chemical genetic growth profiling, strain panel (AID 1159580)
# condition.details: S. cerevisiae deletion strains, growth OD, locus YMR277W, strain FCP1, stronger effect = lower value
Among all 5,500 compounds or so, about 2,000 (36%) were called active. Not shown: some 18% with an inconclusive outcome. This is one part of the list.
measurement.label: normalized growth
Give the figure by itself; no unit, no explanation.

// solved cases for normalized growth follow
molecule: Fc1cc(I)ccc1Nc1ccnc2cc(Cl)ccc12
data.value: 0.984
//
molecule: CCCN(CCC)C(=S)NC(=O)c1cccc([N+](=O)[O-])c1
data.value: 0.973
//
molecule: C/C(Cc1nnn(-c2cc(C)on2)n1)=N/OC(=O)Nc1ccc(Cl)cc1
data.value: 0.978
//
molecule: O=C(ON=C1CCCCC1)c1ccc([N+](=O)[O-])cc1
data.value: 0.938
//
molecule: N#C/C(=N/Nc1ccc(F)cc1)C(=O)c1ccccc1
data.value: 0.85

Determine its reported normalized growth: Oc1c(Cl)cc(Cl)cc1C=Nc1nc(-c2ccc3ccccc3c2)cs1 0.958

Determine its reported normalized growth: CC(C)(C)c1ccc(N/N=C(\C#N)C(N)=O)cc1 0.105

Determine its reported normalized growth: CCOC(=O)c1ccc2nc(N=CNO)sc2c1 0.963

Determine its reported normalized growth: N#C/C(=N/Nc1ccc(F)cc1)S(=O)(=O)c1ccc(Cl)cc1 0.979

Determine its reported normalized growth: CC(C)(C)c1ccc(C(=N)SC(C(=O)C(F)(F)F)c2ccccc2)cc1 (configuration not stated) 0.993

Determine its reported normalized growth: O=C(Nc1cccc(C(F)(F)F)c1)c1cncc(C#Cc2ccccc2)c1 0.975

Determine its reported normalized growth: N/C(Cn1ccc(C(F)(F)F)n1)=N/OS(=O)(=O)c1cccc(Cl)c1Cl 0.991

---

# measurement.protocol: chemical genetic growth profiling, strain panel (AID 1159580)
# condition.details: S. cerevisiae deletion strains, growth OD, locus YBL061C, strain skt5
Hit rate of the full screen: of about 5,500 compounds, about 2,000 (36%) were called active. Inconclusive results (about 18%) are left out. Rule as the data show it: active = normalized growth mostly below about 0.91 (no sharp cut-off); inconclusive = no clear call, values can overlap the other calls; inactive = mostly above about 0.92. This is one part of the list.
Output constraint: value belongs to active, inactive

Sample answers from the record:
compound: CN1C2C[C@H](OC(=O)[C@H](CO)c3ccccc3)C[C@H]1[C@@H](O)C2
classification: inactive

compound: O=c1c(-c2ccc(O)cc2)coc2cc(O)ccc12
classification: inactive

compound: CC1COc2c(N3CCN(C)CC3)c(F)cc3c(=O)c(C(=O)O)cn1c23 (stereo not drawn)
classification: inactive

Hi, sorry to bother you, what did the test record for O=C(/C=C/c1ccc(O)c(O)c1)OC(Cc1ccc(O)c(O)c1)C(=O)O (stereo not drawn) ? inactive

Hi, sorry to bother you, what did the test record for C=CCc1ccc(O)c(OC)c1 ? inactive

Hi, sorry to bother you, what did the test record for O=C(/C=C/c1ccc(O)c(O)c1)OCCc1ccccc1 ? active

Hi, sorry to bother you, what did the test record for COc1cc(CNC(=O)CCCC/C=C/C(C)C)ccc1O ? inactive

Hi, sorry to bother you, what did the test record for C#CCCCCCCCCCCCc1ccco1 ? inactive

Hi, sorry to bother you, what did the test record for CC(=O)S[C@@H]1CC2=CC(=O)CC[C@]2(C)[C@H]2CC[C@@]3(C)[C@@H](CC[C@@]34CCC(=O)O4)C12 (stereo partly drawn) ? inactive

Hi, sorry to bother you, what did the test record for C[C@@H]1CC(Cl)CC[C@H]1C(=O)OC(C)(C)C (stereo partly drawn) ? inactive

Hi, sorry to bother you, what did the test record for CCCCCCCCC(=O)NCc1ccc(O)c(OC)c1 ? inactive

Hi, sorry to bother you, what did the test record for C=CCc1ccc(OC)cc1 ? inactive

Hi, sorry to bother you, what did the test record for CN1C2CCC1CC(OC(c1ccccc1)c1ccccc1)C2 (stereo not drawn) ? inactive

---

# measurement.protocol: chemical genetic growth profiling, strain panel (AID 1159580);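 further: tested at 20 µM; growth read once vehicle control cultures reached saturation at 30 °C; 1 = growth at the plate median or of vehicle wells; lower values mean less growth of the strain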
# condition.details: S. cerevisiae deletion strains, growth OD, locus YOR061W, strain CKA2, stronger effect = lower value
The campaign covered roughly 5,500 compounds. About 2,000 (36%) were called active. Inconclusive results (about 18%) are left out. The list shows a part of the results.
We begin with a simple list: items and their reported normalized growth.
Give the figure by itself; no unit, no explanation.

// solved cases for normalized growth follow
molecule: N/C(CCSc1ccc(Cl)cc1)=N/OC(=O)Nc1ccc(Cl)cc1
normalized growth: 0.326

molecule: NCCC(O)C(=O)NC1CC(N)C(OC2OC(CN)C(O)C(O)C2N)C(OC2OC(CO)C(O)C2O)C1O (centres undefined)
normalized growth: 0.999

molecule: Cc1c(C(=O)Sc2ccc(F)cc2F)sc2nc(C(F)(F)F)nn12
normalized growth: 0.12

molecule: O=C1c2ccc(O)cc2O[C@H](c2cc(O)c(O)c(O)c2)[C@H]1O
normalized growth: 1

molecule: CN(C)CCOC(c1ccc(Cl)cc1)c1ccccn1 (centres undefined)
normalized growth: 1.01

molecule: COc1cccc(C2CCN(C(=O)c3cccc4ccccc34)CC2)c1
normalized growth: 0.877

molecule: CN1CCC(OC(c2ccccc2)c2ccccc2)CC1
normalized growth: 1

molecule: CCN(CC)C(=O)N1CCN(C)CC1
normalized growth: 1.02

Now let's try a different one.
Determine its reported normalized growth: Cc1cc(C)cc(Sc2ccc3nnc(-c4ccccc4)n3n2)c1 0.986

---

# measurement.protocol: chemical genetic growth profiling, strain panel (AID 1159580);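 further: tested at 20 µM; growth read once vehicle control cultures reached saturation at 30 °C; 1 = growth at the plate median or of vehicle wells; lower values mean less growth of the strain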
# condition.details: S. cerevisiae deletion strains, growth OD, locus YOR184W, strain ser1, stronger effect = lower value
Out of some 5,500 compounds screened, about 2,000 (36%) were called active. Another 18% or so got no clear call; they are omitted. The list shows a part of the results.
We begin with a simple list: items and their reported normalized growth.

// solved cases for normalized growth follow
molecule: CCn1cc(C(=O)O)c(=O)c2cc(F)c(N3CCNCC3)nc21
normalized growth: 1.02 (inactive)
--
molecule: COc1ccc(-c2coc3cc(O)ccc3c2=O)c(OC)c1O
normalized growth: 0.974 (inactive)
--
molecule: COc1ccccc1-c1coc2cc(O)ccc2c1=O
normalized growth: 0.981 (inactive)
--
molecule: CC1COc2c(N3CCN(C)CC3)c(F)cc3c(=O)c(C(=O)O)cn1c23 (stereo not given)
normalized growth: 1.02 (inactive)

Now let's try a different one.
Determine its reported normalized growth: C[C@H]1COc2c(N3CCN(C)CC3)c(F)cc3c(=O)c(C(=O)O)cn1c23 1.02 (inactive)

---

# measurement.protocol: chemical genetic growth profiling, strain panel (AID 1159580);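 further: tested at 20 µM; growth read once vehicle control cultures reached saturation at 30 °C; 1 = growth at the plate median or of vehicle wells; lower values mean less growth of the strain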
# condition.details: S. cerevisiae deletion strains, growth OD, locus YER111C, strain swi4, stronger effect = lower value
In all, about 5,500 compounds went through this assay and about 2,000 (36%) were called active. Another 18% or so got no clear call; they are omitted. This is one part of the list.
We begin with a simple list: items and their reported normalized growth.
Give the figure by itself; no unit, no explanation.

Determine its reported normalized growth: CC[C@@]1(O)C[C@H](O)c2c(cc3c(c2O)C(=O)c2c(O)ccc(O)c2C3=O)[C@H]1C(=O)OC 1.03

Determine its reported normalized growth: COC(=O)[C@@H]1OC(=O)C2OC23[C@@]1(C)CCC1[C@]2(C)C(C[C@H](O)[C@]13C)C(C)(C)[C@H](OC(C)=O)C[C@@H]2OC(C)=O (stereo partly drawn) 1.01

Determine its reported normalized growth: O=C(O[C@@H]1Cc2c(O)cc(O)cc2O[C@@H]1c1ccc(O)c(O)c1)c1cc(O)c(O)c(O)c1 0.986
